Literature compilation of IC50 measurements on Thromboxane-A synthase (Homo sapiens).
Sequence (P24557 whole entry): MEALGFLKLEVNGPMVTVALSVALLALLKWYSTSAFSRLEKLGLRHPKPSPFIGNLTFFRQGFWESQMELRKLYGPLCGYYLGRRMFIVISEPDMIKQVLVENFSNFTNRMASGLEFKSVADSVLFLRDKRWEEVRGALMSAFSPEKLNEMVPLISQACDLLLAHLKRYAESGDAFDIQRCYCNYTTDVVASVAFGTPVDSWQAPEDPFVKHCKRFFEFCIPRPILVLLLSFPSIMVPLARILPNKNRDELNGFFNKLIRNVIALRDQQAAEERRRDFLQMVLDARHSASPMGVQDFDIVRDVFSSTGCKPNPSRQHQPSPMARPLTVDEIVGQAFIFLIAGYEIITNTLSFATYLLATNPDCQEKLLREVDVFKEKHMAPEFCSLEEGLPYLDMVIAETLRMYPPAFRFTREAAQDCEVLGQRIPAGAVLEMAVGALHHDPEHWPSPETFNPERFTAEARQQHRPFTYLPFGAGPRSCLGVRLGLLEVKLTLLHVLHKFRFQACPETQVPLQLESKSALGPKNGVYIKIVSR
observable: IC50 (µM)

Find the recorded IC50 belonging to NC(=O)CCC(CCCCNS(=O)(=O)c1ccc(Cl)cc1)CCCc1cccnc1 (configuration not stated) and report it.
0.06

# repeat for O=C(O)CCC/C=C(\c1ccc(CCNC(=O)c2ccc(Cl)cc2)cc1)c1cccnc1
0.043

# repeat for O=C(NC(=O)c1ccc(OCCn2ccnc2)cc1)c1ccccc1
0.18

I = O=C(O)CCCCC(CCNS(=O)(=O)c1ccc(Cl)cc1)Cc1cccnc1 (configuration not stated)
II = CC(C)(C)CS(=O)(=O)NCCc1cc(CCC(=O)O)cc(Cc2cccnc2)c1
Given I and II , report the one with the higher recorded IC50. API: response body contains the label of the selected item.
II
